Taken from PubChem BioAssay (NCI).

Tested on: DU-145 prostate
Assay: NCI-60 one-dose screen, 48 h (100 = growth as untreated, 0 = no growth, -100 = all killed)
Details: 10 µM unless noted
Description: Cells are grown in 96 well plates and exposed to the test compound for 48 hours. Compounds are tested at a single concentration, which is 10^-5 M for most compounds. The reported endpoint is percent growth (GI% or GIPRCNT), where numbers from 0 - 100% represent growth inhibition, and numbers from -100% - 0 represent cell death. For example, a value of 40 represents 60% growth inhibition. A value of 0 means no net growth occurred over the course of the experiment. […]
The panel holds about 83,000 compounds, 20% with a hit somewhere; the sample as a whole holds those more often.
property measured: growth (%)
Numeric answer only, unit % assumed.

Tell me growth reported for COc1cc(/C=C/C(=O)c2cnn(-c3cc(=O)[nH]c4ccc(Cl)cc34)c2C)cc(OC)c1OC -72.8

Tell me growth reported for N/C(=N\c1nc2ccccc2s1)NC(=O)Nc1ccccc1[N+](=O)[O-] 1.45

Tell me growth reported for COc1ccc(NC(=O)CSc2nnc(-c3ccc(-c4nc5ccc(Cl)cc5[nH]4)cc3)o2)cc1 8.29

Tell me growth reported for OC1CCC(Cn2c(C(F)(F)F)cc3c(Cl)ncnc32)CC1 (centres undefined) 10.5

Tell me growth reported for CCCCNc1ccc2c3c(cccc13)C(=O)N(c1cccc(-c3nn(-c4ccccc4)cc3-c3nc4ccccc4s3)c1)C2=O 106

Tell me growth reported for Cc1[nH]nc2ccc3nc(-c4cnn(CCO)c4)c4c(c3c12)CCCC4 37.9

Tell me growth reported for COc1cccc2nc(Nc3cccc(NC(=O)c4ccc(CN5CCN(C)CC5)c(C(F)(F)F)c4)c3)ccc12 -83.5

Tell me growth reported for O=C(Nc1nc2ccccc2s1)Nc1ccccc1Cl 99.9

Tell me growth reported for O=C(N/N=C/c1c[nH]c2ccccc12)Nc1ccc(F)c(Cl)c1 61.5

Tell me growth reported for Cn1cc(-c2cc(N)n3nc(-c4c[nH]c5ccccc45)cc3n2)c2cc(F)ccc21 46.2

Tell me growth reported for O=C(CSc1nc2ccccc2c(=O)[nH]1)Nc1ccccc1C(=O)O 129

Tell me growth reported for CCOc1ccccc1[C@H]1C(C(=O)c2ccc(Cl)cc2)C2(N[C@@H]1c1ccccc1)C(=O)Nc1ccc(Br)cc12 (some centres undefined) 23

Tell me growth reported for CN1C(=O)/C(=C/c2ccco2)S/C1=N/c1nccs1 107

Tell me growth reported for C=CCSc1nnc(-c2ccc(-c3nc4ccc(Cl)cc4[nH]3)cc2)o1 85

Tell me growth reported for N#Cc1c(-c2ccc(F)cc2)nc(SCc2ccccc2)nc1N1CCNCC1 -79.8

Tell me growth reported for COc1ccc(N=Nc2c(N)nn3c(N)c(C#N)c(-c4ccc(F)cc4)nc23)cc1 58.8

Tell me growth reported for COc1cc(/C=C/C(=O)c2cnn(-c3cc(=O)[nH]c4ccc(C)cc34)c2C)cc(OC)c1OC -54.6

Tell me growth reported for NNc1ncnc2sc3c(c12)CCN(Cc1ccccc1)C3 61.7

Tell me growth reported for Nc1nc2cc(-c3ccc4ncnc(NCc5ccccc5)c4c3)ccc2o1 15.9

---

system: HCC-2998 colon; test: NCI-60 one-dose screen, 48 h (100 = growth as untreated, 0 = no growth, -100 = all killed); details: 10 µM unless noted
The panel holds about 83,000 compounds, 20% with a hit somewhere; the sample as a whole holds those more often.
For each entry below, report its growth value.
Numeric answer only, unit % assumed.

State growth on HCC-2998 colon. Entry: O=C(Nc1ccc(-c2ccc3c(c2)NC(=O)/C3=C\c2ccc[nH]2)cc1)Nc1cccc(Cl)c1 -24.2

State growth on HCC-2998 colon. Entry: COc1ccc(-c2cc(C(=O)N=Nc3c(O)[nH]c4ccc(Cl)cc34)c3ccccc3n2)cc1OC 109

State growth on HCC-2998 colon. Entry: COc1cc(NC(=O)CSc2nnc(-c3ccc(-c4nc5ccc(Cl)cc5[nH]4)cc3)o2)cc(OC)c1OC 68.9

State growth on HCC-2998 colon. Entry: Cc1ccc(N=Nc2c(N)nn3c(-c4cc5ccccc5oc4=O)ccnc23)cc1 -21.1

State growth on HCC-2998 colon. Entry: O=C(N/N=C/c1ccc(Br)o1)c1[nH]c2ccc(Br)cc2c1-c1ccccc1 -7.57

State growth on HCC-2998 colon. Entry: CC1=C(C)C(=O)C(N2CCSCC2)=CC1=O 109

State growth on HCC-2998 colon. Entry: N#CC1=C(c2ccco2)Nc2c(c(-c3ccccc3)nn2-c2ccccc2)C12C(=O)Nc1ccc(Cl)cc12 (configuration not stated) 64.8

State growth on HCC-2998 colon. Entry: Cc1nc(Nc2ccccn2)sc1C1=NNC(c2ccccc2F)C1 (configuration not stated) 95.7

State growth on HCC-2998 colon. Entry: COc1ccc(N=Nc2c(N)nn3c(-c4cc5ccccc5oc4=O)ccnc23)cc1 38.1

State growth on HCC-2998 colon. Entry: CCN1C(=O)N(CC)C2NNC(Sc3c(C(=O)O)c4ccccc4n(CC(C)C)c3=O)=NC21 (configuration not stated) 18.7

State growth on HCC-2998 colon. Entry: Cn1cc(-c2cc3nc(-c4cn(C)c5ncc(Br)cc45)cc(N)n3n2)c2cc(F)ccc21 -14.5

State growth on HCC-2998 colon. Entry: COc1ccccc1/C=C/c1cccc(NC(=S)NCCCCN(C)C)c1 -94.1

State growth on HCC-2998 colon. Entry: COc1ccc(-c2cc(-c3cc(OC)c(OC)c(OC)c3)[nH]c(=O)c2C#N)cc1 67.1

State growth on HCC-2998 colon. Entry: N#CCc1nnc(NC(=O)c2ccc(-n3c(=O)[nH]c4ccccc4c3=O)cc2)s1 108

State growth on HCC-2998 colon. Entry: Oc1ccc(Cl)c(Nc2nc(SCCN3CCOCC3)nc3c2cnn3CC(Cl)c2ccc(Br)cc2)c1 (configuration not stated) 9.56

State growth on HCC-2998 colon. Entry: O=C1Nc2cc(-c3ccc(NS(=O)(=O)c4ccc(C(F)(F)F)cc4)cc3)ccc2/C1=C/c1ccc[nH]1 30.5

State growth on HCC-2998 colon. Entry: Cc1ccc(C2CC(c3ccc(NC(=S)Nc4ccccc4)cc3)=NN2c2ccc(S(N)(=O)=O)cc2)cc1 (configuration not stated) -16.9

State growth on HCC-2998 colon. Entry: Cc1ccc(C(=O)Nc2cc(-c3ccccc3)cc(C(F)(F)F)c2)cc1C#Cc1cnc2cccnn12 85.3

State growth on HCC-2998 colon. Entry: C=CCSc1nnc(-c2c(C)nc3sccn23)o1 110

State growth on HCC-2998 colon. Entry: C[C@H](NC(=O)c1ccc2c(-c3ccc(C(F)(F)F)cc3)cccc2c1)c1ccccn1 49.9

State growth on HCC-2998 colon. Entry: COc1cccc(C(N)=Nc2ccc(OCCCCCCCCn3cncn3)cc2)c1 23.4

State growth on HCC-2998 colon. Entry: O=C(c1ccc(O)cc1)C1[C@H](c2ccccc2Br)[C@@H](c2ccccc2)NC12C(=O)Nc1ccccc12 (some centres not stated) -7.94

---

system: ACHN renal; test: NCI-60 one-dose screen, 48 h; conditions: 10 µM unless noted
This is part of a sample that, as a whole, favours compounds with a hit. Of some 83,000 tested, about 20% had one in any assay. Calls of active or inactive are those of the source. Rule for the calls: active = growth percent below 10; inactive = the rest.
API: response.call in T = active, F = inactive

Please state the recorded outcome for this compound: COc1cccc(-c2ccc(/C=N/NC(=O)c3[nH]c4ccc(Br)cc4c3-c3ccccc3)s2)c1 T

Please state the recorded outcome for this compound: Cc1ccc(C(=O)Nc2cc(-c3ccncc3)cc(C(F)(F)F)c2)cc1C#Cc1cnc2cccnn12 F

Please state the recorded outcome for this compound: COc1ccc2nc(NC(=O)c3ccc(N(C)C)cc3)sc2c1 F

Please state the recorded outcome for this compound: O=C(OCCOCCO)N(c1cccc(Br)c1)c1nc(SCCN2CCOCC2)nc2c1cnn2CC(Cl)c1ccc(Br)cc1 (centres undefined) T

Please state the recorded outcome for this compound: CNS(=O)(=O)N1CCc2c(Br)c3c(c(OC)c2C1CCc1ccccc1)OCO3 (centres undefined) T

Please state the recorded outcome for this compound: CC(C)CN1C(=O)/C(=C\C(=O)c2cc3ccccc3oc2=O)c2ccccc21 F

Please state the recorded outcome for this compound: O=C(Nc1nc2ccccc2s1)Nc1ccccc1Cl F

Please state the recorded outcome for this compound: C[C@@H]1CN(c2ccc3ncc(C#Cc4cncc(C(=O)Nc5ccc(CN6CCN(C)CC6)c(C(F)(F)F)c5)c4)n3n2)C[C@@H](C)O1 T

Please state the recorded outcome for this compound: Cc1ccc(C(=O)C[n+]2cccc3c4ccccc4ccc32)cc1 F

Please state the recorded outcome for this compound: Nc1nn2c(-c3cc4cc(Br)ccc4oc3=O)ccnc2c1N=Nc1ccc(Br)cc1 F

Please state the recorded outcome for this compound: Cc1ccc(N=Nc2c(N)nn3c(-c4cc5ccccc5oc4=O)ccnc23)cc1 F

Please state the recorded outcome for this compound: O=C(N/N=C/c1ccsc1)c1[nH]c2ccc(Br)cc2c1-c1ccccc1 T

Please state the recorded outcome for this compound: Nc1cc(-c2c[nH]c3ccc(Cl)cc23)nc2cc(-c3c[nH]c4ccccc34)nn12 T

Please state the recorded outcome for this compound: CCOc1ccccc1[C@H]1C(C(=O)c2ccc(Cl)cc2)C2(N[C@@H]1c1ccccc1)C(=O)Nc1ccccc12 (some centres undefined) T
